Provide the recorded MFI for the entries that follow.
Target: T1, human SEMA4D, full length, on CHO-K1 cells (CHO-K1 hSEMA4D) (human, UniProt Q92854 22-862)
T1 construct: whole, on cells; also called human SEMA4D recombinant cells
T1 sequence (looked up): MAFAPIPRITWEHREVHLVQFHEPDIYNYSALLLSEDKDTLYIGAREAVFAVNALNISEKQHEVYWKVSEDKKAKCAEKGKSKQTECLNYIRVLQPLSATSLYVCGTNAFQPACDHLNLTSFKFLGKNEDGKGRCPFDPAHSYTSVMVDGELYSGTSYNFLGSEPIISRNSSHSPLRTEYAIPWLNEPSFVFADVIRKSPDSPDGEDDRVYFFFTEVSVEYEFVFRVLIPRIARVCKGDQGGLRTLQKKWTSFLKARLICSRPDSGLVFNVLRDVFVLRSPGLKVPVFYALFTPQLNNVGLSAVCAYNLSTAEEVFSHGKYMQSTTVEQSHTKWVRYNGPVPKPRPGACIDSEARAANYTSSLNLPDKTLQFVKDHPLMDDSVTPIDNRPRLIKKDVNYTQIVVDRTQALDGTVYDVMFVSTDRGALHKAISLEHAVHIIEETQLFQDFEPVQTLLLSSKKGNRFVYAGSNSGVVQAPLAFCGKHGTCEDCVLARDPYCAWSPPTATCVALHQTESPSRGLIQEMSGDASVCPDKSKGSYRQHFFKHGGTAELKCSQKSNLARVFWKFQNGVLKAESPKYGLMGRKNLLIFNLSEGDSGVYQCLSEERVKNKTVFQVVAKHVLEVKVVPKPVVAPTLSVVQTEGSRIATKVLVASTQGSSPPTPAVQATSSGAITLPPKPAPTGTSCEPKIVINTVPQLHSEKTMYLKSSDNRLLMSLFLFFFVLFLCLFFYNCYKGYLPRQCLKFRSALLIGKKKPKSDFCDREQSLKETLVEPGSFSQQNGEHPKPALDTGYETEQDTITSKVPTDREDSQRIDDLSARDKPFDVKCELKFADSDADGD
Assay: FACS, CHO-K1 hSEMA4D cells; Ab 0.000853 nM
Just the number, please.

Need MFI, item 37C4F7 (antibody, V domains shown, Mouse monoclonal antibody purified from hybridoma supernatant on protein A) VH: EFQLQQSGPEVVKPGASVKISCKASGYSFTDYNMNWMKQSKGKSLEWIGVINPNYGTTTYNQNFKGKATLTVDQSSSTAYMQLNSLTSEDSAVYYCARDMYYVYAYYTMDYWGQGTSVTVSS VL: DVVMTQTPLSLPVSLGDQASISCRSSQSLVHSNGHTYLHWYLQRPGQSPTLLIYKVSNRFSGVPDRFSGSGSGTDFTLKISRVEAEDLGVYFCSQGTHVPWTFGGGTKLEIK
36.9

Field request: MFI | item: 38H2E3 (antibody, V domains shown, Mouse monoclonal antibody purified from hybridoma supernatant on protein A) VH: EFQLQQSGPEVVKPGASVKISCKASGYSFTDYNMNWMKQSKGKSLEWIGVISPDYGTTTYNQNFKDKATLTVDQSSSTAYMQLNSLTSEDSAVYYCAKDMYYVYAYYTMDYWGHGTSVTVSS VL: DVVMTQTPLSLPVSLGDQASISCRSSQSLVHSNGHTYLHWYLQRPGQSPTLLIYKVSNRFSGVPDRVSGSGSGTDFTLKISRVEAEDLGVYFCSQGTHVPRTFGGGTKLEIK
36.7

Fill blank: measured MFI of the binder 31C11G2 (antibody, V domains shown, Mouse monoclonal antibody purified from hybridoma supernatant on protein A) VH: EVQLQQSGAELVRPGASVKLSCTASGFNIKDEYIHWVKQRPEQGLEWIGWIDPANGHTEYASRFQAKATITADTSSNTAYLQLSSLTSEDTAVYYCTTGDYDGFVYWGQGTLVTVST VL: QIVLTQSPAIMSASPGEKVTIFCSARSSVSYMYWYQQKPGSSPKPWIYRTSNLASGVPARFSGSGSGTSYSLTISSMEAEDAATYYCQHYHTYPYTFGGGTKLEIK is ____.
46.7

Look up MFI: 32C8F10 (antibody, V domains shown, Mouse monoclonal antibody purified from hybridoma supernatant on protein A) VH: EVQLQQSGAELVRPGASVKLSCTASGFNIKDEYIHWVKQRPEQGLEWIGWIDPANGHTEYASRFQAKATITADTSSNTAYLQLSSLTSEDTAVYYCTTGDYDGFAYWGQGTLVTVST VL: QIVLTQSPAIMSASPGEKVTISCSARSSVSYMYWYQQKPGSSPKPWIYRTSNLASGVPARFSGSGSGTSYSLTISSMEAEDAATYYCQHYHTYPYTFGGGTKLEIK
47.3
